System: RXRa homodimer (NR concentration 180 nM)
Assay: PBM binding z-score (relative to random genomic background probes); higher = stronger binding; sequences stand for … in GC…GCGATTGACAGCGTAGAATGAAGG
Measured PBM binding z-score by item
Lab note: jot down the number only; don't add units.

>  <residue-sequence>
AGAACGAGGGCAATGAGTGGATAGCACGGGTGGC

>  <system-tested>
RXRa homodimer (NR concentration 180 nM)

>  <observed>
0.694

$$$$

Kindly note: RXRa homodimer (NR concentration 180 nM), CCTACTGGGCCAAGGTTATTGATCAGTCAAAGCA , PBM binding z-score value reported: 0.318

Kindly note: RXRa homodimer (NR concentration 180 nM), CCTACTAGGCCATTCAGAGGTCATTGATCATATG , PBM binding z-score value reported: 4.11

Kindly note: RXRa homodimer (NR concentration 180 nM), CTCGAAAGGTCGTTCTCAGGTGAGTATACCAAAC , PBM binding z-score value reported: 4.39

Values were extracted from the supplement of paper PMC6555819.
